# System: MS2 coat protein
# assayComment: apparent KD of MS2 coat protein; designed switch direction (-1 OFF switch, 1 ON switch): -1; higher = weaker reporter binding
# appliedConditions: input ligand: FMN 200 uM
Recorded apparent KD of MS2 coat protein by entry
Your answer is read as nM, so omit the unit and give the number.

{"columns": ["macromoleculeSequence", "target", "dataValue"],
 "data": [
  ["UAAAACGUAGGAUAUGCGGAAAAUAACUUGAGGAUCACCCAAGUGUCCGAGAGGCUAAAUGCAGAAGGACGAGAUC [Edxedi] (Eterna round: R97, puzzle: Exclusion 5)", "MS2 coat protein", 179],
  ["AAUGGUAAAGUCAGGAUAUACGUACGUCGUUCUAGGUAGAAGGGACAUGAGGAUCACCCAUGUAUGAUAGUAAA [Ex4 #34] (Eterna round: R97, puzzle: Brourd's mod of Exclusion 4)", "MS2 coat protein", 24.1]
]}

## Input So what does the record say about apparent KD of MS2 coat protein for ACUCGACAUGAGGAUCACCCAUGUGAGGAUAUGGCCUGUAUGGCGUGAGCUGAAUCAAUCAGAAGGCGCGUGGG [salish99_ex1_r4_053] (Eterna round: R97, puzzle: Exclusion 1) ?
## Output 105

## Input Then this sequence: AGCCAAGCAGGAUAUGCCCGUAAUAACAUGAGGAUCACCCAUGUGACCGAUUUAUGUUCUGCAGAAGGGCUUGGAA [LRO-Excl5-12-mod of Erxesoan mod by Eli Fisker] (Eterna round: R97, puzzle: Exclusion 5)
## Output 91.3

## Input Then this sequence: GAACUAAAGCAAAGCUUUAGUCGUACAUGAGGAUCACCCAUGUAGGAUAUGGUAGGCAAAGCAUACCAGAAGGACAGAGUGAUC [Mat - Exclusion NG 3 - Mod of JL - D63] (Eterna round: R96, puzzle: Exclusion NG 3)
## Output 211

Every entry's value here was drawn from the supplement of paper PMC9170038.
